test.target: DLL3 endogenously expressed on NCI-H82 cells (UniProt Q9NYJ7)
Sequence (Q9NYJ7 27-618): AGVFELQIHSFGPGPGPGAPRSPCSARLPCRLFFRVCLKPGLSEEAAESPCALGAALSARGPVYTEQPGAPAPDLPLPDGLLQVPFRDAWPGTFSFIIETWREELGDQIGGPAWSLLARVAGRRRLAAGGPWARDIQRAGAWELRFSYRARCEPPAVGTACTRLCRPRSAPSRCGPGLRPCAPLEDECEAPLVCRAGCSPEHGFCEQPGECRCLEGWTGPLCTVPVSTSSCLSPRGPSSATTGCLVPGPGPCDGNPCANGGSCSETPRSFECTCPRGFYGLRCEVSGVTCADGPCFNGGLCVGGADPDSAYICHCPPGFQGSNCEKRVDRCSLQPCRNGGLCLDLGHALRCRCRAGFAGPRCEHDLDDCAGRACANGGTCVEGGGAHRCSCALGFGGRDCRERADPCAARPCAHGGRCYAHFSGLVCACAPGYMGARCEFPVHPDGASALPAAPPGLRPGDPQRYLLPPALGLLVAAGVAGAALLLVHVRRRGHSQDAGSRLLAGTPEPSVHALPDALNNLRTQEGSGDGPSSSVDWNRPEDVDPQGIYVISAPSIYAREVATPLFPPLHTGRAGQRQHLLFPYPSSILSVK
assay: FACS on NCI-H82 cells; antibody 0.16 nM
Provide the recorded MFI for the entries that follow.
Give bare numbers.

Working through the 3 binders below one at a time, give MFI for each.
1. Hab009VL2aVH1-hFc (Fc fusion, part only; not given: Linker and human IgG1 Fc, not shown: a dimerising Fc or GST) chain, part: DIVMTQSPLSLPVTPGEPASISCRASQTISDYLHWYLQKPGQSPRLLIKYASQSISGVPDRFSGSGSGTDFTLKISRVEAEDVGVYYCQQGHSFPLTFGQGTKLEIKEVQLVQSGAEVKKPGASVKVSCKASGYTFTSYWMHWVRQAPGQRLEWMGTIYPGNSDTRYNQKFKDRVTITADTSASTAYMELSSLRSEDTAVYYCTRSYDYGDLDYWGQGTTVTVSS
2. mab008 scFv-hFc (Fc fusion, part only; not given: linker and human IgG1 Fc, not shown: a dimerising Fc or GST) chain, part: DIVMTQSQKFMSTSVGDRVSITCKASQNVGTAVAWYQQKPGQSPKLLIFSASIRYTGVPDRFTGSGSGTDFTLTISNMQSEDLADYFCQQYSSSPYTFGGGTKLEIKEVQLQQSGPVLVKPGASVKMSCKASGYTFTDYYMNWVKRSHGKSLEWIGIINPYNGGTSYNQKFRGKATLTVDKSSNTAYMELNSLTSEDSAVYYCSRYDYDYDVEGAMDYWGQGTSVTVSS
3. Hab013VL2VH2a-hFc (scFv, part only; not given: scFv linker and human IgG1 Fc, V domains shown, not shown: another chain or arm of the molecule; a dimerising Fc or GST; small tags and cut ends) VL: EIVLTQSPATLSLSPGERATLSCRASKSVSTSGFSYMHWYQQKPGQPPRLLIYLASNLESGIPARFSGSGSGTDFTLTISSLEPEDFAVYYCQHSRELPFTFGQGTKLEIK VH: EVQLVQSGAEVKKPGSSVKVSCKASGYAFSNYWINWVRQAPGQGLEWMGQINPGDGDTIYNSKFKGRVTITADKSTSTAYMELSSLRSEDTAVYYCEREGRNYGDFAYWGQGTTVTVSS

output:
671
107
670

The values you see were collected from patent EP4786492A1.
